# MEASURED TARGET: NA of A/California/173/2024 (Influenza A virus)
# Sequence (Q9Q0U7 whole entry, looked up): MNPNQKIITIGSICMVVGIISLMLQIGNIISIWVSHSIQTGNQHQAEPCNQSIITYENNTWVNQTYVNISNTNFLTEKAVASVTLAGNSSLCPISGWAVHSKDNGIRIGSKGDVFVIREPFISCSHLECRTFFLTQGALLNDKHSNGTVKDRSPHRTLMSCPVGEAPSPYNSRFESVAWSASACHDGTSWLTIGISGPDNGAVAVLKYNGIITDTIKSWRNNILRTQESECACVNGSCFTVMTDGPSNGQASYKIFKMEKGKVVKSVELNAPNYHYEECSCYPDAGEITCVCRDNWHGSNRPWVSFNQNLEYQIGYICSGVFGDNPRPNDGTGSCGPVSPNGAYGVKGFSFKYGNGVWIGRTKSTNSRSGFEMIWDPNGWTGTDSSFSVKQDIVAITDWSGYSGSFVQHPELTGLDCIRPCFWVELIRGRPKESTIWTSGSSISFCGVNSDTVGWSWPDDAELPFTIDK
# CONDITION DETAILS: read-out: NA inhibitor IC50 ± SD
MEASURE NAME: IC50

{"CHEMICAL SMILES": "CC(=O)N[C@H]1[C@H]([C@H](O)[C@H](O)CO)OC(C(=O)O)=C[C@@H]1N=C(N)N", "MEASURE NAME": "IC50", "RESULT": "0.23 nM"}

###

# Tested on: Genotype D1.1 viruses (n = 7)
# RUN DESCRIPTION: microbe, parasite or virus in culture
# Assay type: cell-based, influenza A(H5N1) virus
# CONDITION DETAILS: Influenza A virus, read-out: PA inhibitor EC50, median
pEC50: −log10 of the molar value.
MEASURE NAME: pEC50

{"MOLECULE": "O=C1c2c(O)c(=O)ccn2N([C@@H]2c3ccccc3SCc3c2ccc(F)c3F)[C@@H]2COCCN12 [Baloxavir, baloxavir acid]", "RESULT": 9.47}
